Reference source for all entries: patent US10245238B2

- assay.info: Oral absorbability of various complexes: curcumin concentration in blood plasma after forced oral administration
- Type: in vivo
- run.conditions: male, rat, plasma, SD rats, curcumin dose 10 mg/kg
outcome.measure: Cmax (ng/mL)
One number for each entry, in ng/mL.

So what does the record say about Cmax for COc1cc(/C=C/C(=O)/C=C(O)/C=C/c2ccc(O)c(OC)c2)ccc1O ?
49.8

---

- assay.info: Oral absorbability of various complexes: curcumin concentration in blood plasma after forced oral administration
- Assay type: in vivo
- run.conditions: male, rat, plasma, SD rats, curcumin dose 10 mg/kg, 2 h after administration
outcome.measure: concentration at 2 h (ng/mL)
Numbers only, in ng/mL.

Param item = COc1cc(/C=C/C(=O)/C=C(O)/C=C/c2ccc(O)c(OC)c2)ccc1O [Curcumin base powder, curcumin] ; retrieve measured concentration at 2 h.
34.2

---

- assay.info: Oral absorbability of various complexes: curcumin concentration in blood plasma after forced oral administration
- Type: in vivo
- run.conditions: male, rat, plasma, SD rats, curcumin dose 10 mg/kg, 1 h after administration
outcome.measure: concentration at 1 h
Just the number plus its unit, please.

Which concentration at 1 h is reported for this compound? COc1cc(/C=C/C(=O)/C=C(O)/C=C/c2ccc(O)c(OC)c2)ccc1O
17.2 ng/mL
